Listed here are compounds together with their documented Weed suppression rate (%) Lindemia pyxidaria.
Test system: Lindernia pyxidaria
Test: Test Example 12: herbicidal effect test by treatment during growing period in paddy field
Format: in vivo
Conditions: 120 g/10a; treatment seven days after sowing in flooded paddy pot; assessed 14 days after treatment
Note: state the figure and append the unit.

CCS(=O)(=O)n1ncn(C(=O)N(c2c(F)cc(F)cc2F)C(C)C)c1=O [Compound 11-1154]; 80%
CC(C)N(C(=O)n1cnn(S(=O)(=O)c2ccc(F)cc2)c1=O)c1ccc(F)cc1Cl [Compound 11-482]; 80%
CC(C)N(C(=O)n1cnn(S(=O)(=O)c2ccccc2Cl)c1=O)c1ccccc1F [Compound 11-502]; 80%

Query: For the compound Cc1cc(C)c(S(=O)(=O)n2ncn(C(=O)N(c3cccc(F)c3F)C(C)C)c2=O)c(C)c1 [Compound 11-862] , give its reported Weed suppression rate (%) Lindemia pyxidaria.
Reply: 80%

Query: Provide measured Weed suppression rate (%) Lindemia pyxidaria value, entry: CC(C)N(C(=O)n1cnn(S(=O)(=O)C2CC2)c1=O)c1ccc(F)cc1 [Compound 11-162]
Reply: 80%

Query: Give the reported value of Weed suppression rate (%) Lindemia pyxidaria for this record: CC(C)N(C(=O)n1cnn(S(=O)(=O)c2c(F)c(F)c(F)c(F)c2F)c1=O)c1ccc(F)cc1Cl [Compound 11-818]
Reply: 80%

Query: Let me know recorded Weed suppression rate (%) Lindemia pyxidaria for CC(C)N(C(=O)n1cnn(S(=O)(=O)C2CC2)c1=O)c1ccc(C#N)cc1Cl [Compound 11-222] , thanks.
Reply: 80%
